# Test system: TTR
# Measurement protocol: TTR editing in primary human hepatocytes transfected with Spy Cas9 protein (RNP) loaded with dgRNAs (Table 8)
# Assay type: cell-based
# Experimental setup: dgRNA transfected with Spy Cas9 protein (RNP)

Biosequence | Avg % Edit [%]
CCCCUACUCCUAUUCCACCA (tested as dual guide RNA, chemistry not given here) [CR003385] | 41.15
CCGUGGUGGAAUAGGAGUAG (tested as dual guide RNA, chemistry not given here) [CR003386] | 3.22
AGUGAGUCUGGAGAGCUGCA (tested as dual guide RNA, chemistry not given here) [CR003359] | 59.47
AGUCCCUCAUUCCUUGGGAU (tested as dual guide RNA, chemistry not given here) [CR003392] | 10.07
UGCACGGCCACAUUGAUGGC (tested as dual guide RNA, chemistry not given here) [CR003349] | 10.83
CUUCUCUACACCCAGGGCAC (tested as dual guide RNA, chemistry not given here) [CR003342] | 20.66
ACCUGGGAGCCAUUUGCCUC (tested as dual guide RNA, chemistry not given here) [CR003354] | 10.31
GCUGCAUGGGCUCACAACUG (tested as dual guide RNA, chemistry not given here) [CR003361] | 13.08

---

# Test system: TTR
# Measurement protocol: TTR editing in HUH7 cells transfected with Spy Cas9 mRNA and dgRNAs (Table 5)
# Type: cell-based, human
# Experimental setup: HUH7 cells co-transfected with Spy Cas9 mRNA (SEQ ID NO:2) and dgRNAs
Met means recorded Avg % Edit is 40% or above; Not met means it is below 40%.

Biosequence | Category label
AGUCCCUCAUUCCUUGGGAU (tested as dual guide RNA, chemistry not given here) [CR003392] | Not met
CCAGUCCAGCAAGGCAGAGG (tested as dual guide RNA, chemistry not given here) [CR003337] | Met
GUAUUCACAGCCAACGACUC (tested as dual guide RNA, chemistry not given here) [CR003373] | Not met
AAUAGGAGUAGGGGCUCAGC (tested as dual guide RNA, chemistry not given here) [CR003384] | Not met
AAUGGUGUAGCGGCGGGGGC (tested as dual guide RNA, chemistry not given here) [CR003375] | Not met
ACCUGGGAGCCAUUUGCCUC (tested as dual guide RNA, chemistry not given here) [CR003354] | Not met
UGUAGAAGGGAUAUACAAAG (tested as dual guide RNA, chemistry not given here) [CR003365] | Met
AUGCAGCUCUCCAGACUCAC (tested as dual guide RNA, chemistry not given here) [CR003358] | Not met
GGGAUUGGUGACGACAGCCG (tested as dual guide RNA, chemistry not given here) [CR003390] | Not met
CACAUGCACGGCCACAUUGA (tested as dual guide RNA, chemistry not given here) [CR003350] | Met
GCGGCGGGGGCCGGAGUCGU (tested as dual guide RNA, chemistry not given here) [CR003374] | Not met
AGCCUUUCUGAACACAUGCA (tested as dual guide RNA, chemistry not given here) [CR003351] | Met
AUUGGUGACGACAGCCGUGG (tested as dual guide RNA, chemistry not given here) [CR003389] | Met
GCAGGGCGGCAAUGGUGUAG (tested as dual guide RNA, chemistry not given here) [CR003380] | Not met
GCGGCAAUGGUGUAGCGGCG (tested as dual guide RNA, chemistry not given here) [CR003377] | Not met
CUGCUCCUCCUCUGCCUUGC (tested as dual guide RNA, chemistry not given here) [CR003335] | Not met
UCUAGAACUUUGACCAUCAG (tested as dual guide RNA, chemistry not given here) [CR003345] | Met
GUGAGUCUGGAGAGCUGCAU (tested as dual guide RNA, chemistry not given here) [CR003360] | Met

---

Recorded Avg % Insert values for a group of sequences are listed next.
# Test system: TTR
# Measurement protocol: TTR editing in HepG2 cells transfected with Spy Cas9 mRNA and dgRNAs (Table 6)
# Type: cell-based, human
# Experimental setup: HepG2 cells co-transfected with Spy Cas9 mRNA (SEQ ID NO:2) and dgRNAs

Biosequence | Avg % Insert [%]
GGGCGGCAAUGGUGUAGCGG (tested as dual guide RNA, chemistry not given here) [CR003379] | 17.70
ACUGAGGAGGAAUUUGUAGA (tested as dual guide RNA, chemistry not given here) [CR003363] | 28.58
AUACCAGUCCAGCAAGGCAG (tested as dual guide RNA, chemistry not given here) [CR003338] | 65.40

---

# Test system: TTR
# Measurement protocol: TTR editing in primary human hepatocytes electroporated with Spy Cas9 protein loaded with dgRNAs (Table 7)
# Assay type: cell-based
# Experimental setup: dgRNA electroporated with Spy Cas9 protein (RNP)
Examples of sequences with documented Avg % Edit follow.
Result type: Avg % Edit (%)

Biosequence | Result
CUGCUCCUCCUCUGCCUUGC (tested as dual guide RNA, chemistry not given here) [CR003335] | 72.20
AAAUCUUACUGGAAGGCACU (tested as dual guide RNA, chemistry not given here) [CR005306] | 9.43
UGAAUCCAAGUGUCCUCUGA (tested as dual guide RNA, chemistry not given here) [CR005303] | 53.57
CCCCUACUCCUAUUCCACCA (tested as dual guide RNA, chemistry not given here) [CR003385] | 40.87
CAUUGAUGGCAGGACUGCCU (tested as dual guide RNA, chemistry not given here) [CR003347] | 82.30
